Origin of measurements: PubChem BioAssay (NCATS)

# EXPERIMENT: Primary qHTS for inhibitors of SARS-S pseudo-typed particle cell entry (AID 1479145); further: nearly all actives have a fitted effect of over 45% in size
# CONDITION_DETAILS: SARS-S pseudotyped particle cell entry, luciferase reporter; series mostly up to 57.1 µM
Records with an inconclusive call do not appear. Calls of active or inactive are those of the source. The call rests on the fitted dose curve.
Please state which outcome applies, choosing from active, inactive

>>> category("C[C@]1(Cn2ccnn2)[C@H](C(=O)O)N2C(=O)C[C@H]2S1(=O)=O")
"inactive"

State the result this test recorded for C[N+]1(CC2COC(c3ccccc3)(C3CCCCC3)O2)CCCCC1 (stereo unspecified) .
inactive

Recorded test outcome, item NCCc1ccc(O)c(O)c1
inactive

Check the results log: what was the call for CC(=O)OC[C@H]1O[C@@](COC(C)=O)(O[C@H]2O[C@H](COC(C)=O)[C@@H](OC(C)=O)[C@H](OC(C)=O)[C@H]2OC(C)=O)[C@@H](OC(C)=O)[C@@H]1OC(C)=O ?
inactive

Entry COc1ccc(-c2nc3ccc(C4=NNC(=O)CC4C)cc3[nH]2)cc1 (stereo unspecified) : call = ?
inactive

Per the assay record, what outcome was assigned to FC(F)(F)C(F)(F)C(F)(F)C(F)(F)C(F)(F)C(F)(F)C(F)(F)C(F)(F)Br ?
inactive

Would you mind telling me which call this test gave N[C@H]1CN(c2c(F)cc3c(=O)c(C(=O)O)cn(C4C[C@@H]4F)c3c2Cl)CC12CC2 (stereo partly specified) ?
inactive

Please state the recorded outcome for this compound: Cc1cc2nc3ccc(=[N+](C)C)cc-3sc2cc1N
active

Assay result, entry Oc1cccc(-c2c3nc(c(-c4cccc(O)c4)c4ccc([nH]4)c(-c4cccc(O)c4)c4nc(c(-c5cccc(O)c5)c5ccc2[nH]5)CC4)C=C3)c1 — outcome?
inactive

Entry CN1C(=O)CC(c2ccccc2)C1=O (stereo unspecified) : call = ?
inactive

GET /call?item= CCOC(=O)c1cncn1C(C)c1ccccc1 (stereo unspecified) returns the recorded outcome of this test.
inactive
